TARGET_UNDER_TEST: Cholinesterase (Homo sapiens)
Sequence (P06276 whole entry): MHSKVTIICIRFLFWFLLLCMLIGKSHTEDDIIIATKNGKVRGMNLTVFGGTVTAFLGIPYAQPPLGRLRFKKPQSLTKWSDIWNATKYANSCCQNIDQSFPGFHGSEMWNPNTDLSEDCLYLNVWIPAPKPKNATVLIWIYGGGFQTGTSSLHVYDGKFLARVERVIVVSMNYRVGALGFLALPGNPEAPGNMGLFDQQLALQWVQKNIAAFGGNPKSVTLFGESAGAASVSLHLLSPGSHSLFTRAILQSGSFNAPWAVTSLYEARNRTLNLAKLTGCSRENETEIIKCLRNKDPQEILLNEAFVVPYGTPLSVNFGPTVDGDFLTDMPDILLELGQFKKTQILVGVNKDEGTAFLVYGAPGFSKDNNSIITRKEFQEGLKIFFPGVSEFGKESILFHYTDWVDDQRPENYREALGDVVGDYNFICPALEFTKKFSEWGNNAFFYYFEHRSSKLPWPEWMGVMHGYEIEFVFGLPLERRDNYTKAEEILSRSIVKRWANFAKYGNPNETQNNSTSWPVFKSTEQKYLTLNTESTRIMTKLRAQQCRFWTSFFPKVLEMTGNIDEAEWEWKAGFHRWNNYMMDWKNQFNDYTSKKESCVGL
PARAMETER_MEASURED: IC50 (µM)
API: value field is a number in µM; no unit string.

Would you please look over these solved cases?
{"SMILES": "CCOC(=O)N(C)CC[C@@]12C=C[C@H](O)C[C@@H]1Oc1c(OC)ccc(CO)c12", "IC50 / µM": 216}
{"SMILES": "CCOC(=O)O[C@H]1C=C[C@@]2(CCN(C)C(=O)OCC)c3c(CCl)ccc(OC)c3O[C@H]2C1", "IC50 / µM": 790}
{"SMILES": "CCOC(=O)N1CC[C@@]23C=C[C@H](O)C[C@@H]2Oc2c(OC)ccc(c23)C1", "IC50 / µM": 300}
{"SMILES": "COc1ccc2c3c1O[C@H]1C[C@@H](O)C=C[C@@]31CCN(C)OC2", "IC50 / µM": 960}

Now for a further compound.
Lab book: IC50 of CCOC(=O)N(C)CC[C@@]12C=C[C@H](O)C[C@@H]1Oc1c(OC)ccc(C=O)c12 noted as 155

----------
# IC50 measurements, system: Acetylcholinesterase (Electrophorus electricus)
# Sequence (O42275 whole entry): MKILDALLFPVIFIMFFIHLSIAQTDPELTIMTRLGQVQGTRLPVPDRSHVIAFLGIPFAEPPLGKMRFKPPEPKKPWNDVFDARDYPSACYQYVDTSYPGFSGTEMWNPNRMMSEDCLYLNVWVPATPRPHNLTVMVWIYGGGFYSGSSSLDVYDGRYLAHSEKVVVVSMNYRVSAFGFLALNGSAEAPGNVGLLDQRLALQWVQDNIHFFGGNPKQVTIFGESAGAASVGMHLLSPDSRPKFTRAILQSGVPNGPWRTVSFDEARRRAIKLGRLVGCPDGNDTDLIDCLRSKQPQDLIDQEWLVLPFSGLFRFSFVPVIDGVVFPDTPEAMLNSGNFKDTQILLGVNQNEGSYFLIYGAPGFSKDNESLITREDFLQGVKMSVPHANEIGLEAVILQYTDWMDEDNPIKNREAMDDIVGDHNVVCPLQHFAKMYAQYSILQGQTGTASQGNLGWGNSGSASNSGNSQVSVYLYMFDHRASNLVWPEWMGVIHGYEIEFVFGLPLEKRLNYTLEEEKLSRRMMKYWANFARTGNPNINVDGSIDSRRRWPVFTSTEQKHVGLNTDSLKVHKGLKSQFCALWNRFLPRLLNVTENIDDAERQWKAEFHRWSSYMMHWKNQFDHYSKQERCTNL
API: value field is a number in µM; no unit string.

{"SMILES": "CCOC(=O)N(C)CC[C@@]12C=C[C@H](O)C[C@@H]1Oc1c(OC)ccc(C=O)c12", "MEASURED": 1000}
{"SMILES": "CCOC(=O)N(C)CC[C@@]12C=C[C@H](O)C[C@@H]1Oc1c(OC)ccc(CO)c12", "MEASURED": 580}
{"SMILES": "COc1ccc2c3c1O[C@H]1C[C@@H](O)C=C[C@@]31CCN(C)OC2", "MEASURED": 9900}
{"SMILES": "CCOC(=O)N1CC[C@@]23C=C[C@H](O)C[C@@H]2Oc2c(OC)ccc(c23)C1", "MEASURED": 67}

Reading of IC50 for CCOC(=O)O[C@H]1C=C[C@@]2(CCN(C)C(=O)OCC)c3c(CCl)ccc(OC)c3O[C@H]2C1 with Acetylcholinesterase (Electrophorus electricus): 650
